# measurement-protocol: Substrate specificity of WNanoKAZ mutants, crude enzyme solution (Example 11)
# Format: biochemical
# conditions-used: Int.
result-type: Relative luminescence activity, f-CTZ, Int.
Form field (numeric): enter value without unit.

Hello, please tell me recorded Relative luminescence activity, f-CTZ, Int. for this one: KAZ: 19 kDa protein of native Oplophorus luciferase having luminescence activity; SEQ ID NO: 2 (protein, listed as Oplophorus gracilirostris) FTLADFVGDWQQTAGYNQDQVLEQGGLSSLFQALGVSVTPIQKVVLSGENGLKADIHVIIPYEGLSGFQMGLIEMIFKVVYPVDDHHFKIILHYGTLVIDGVTPNMIDYFGRPYPGIAVFDGKQITVTGTLWNGNKIYDERLINPDGSLLFRVTINGVTGWRLCENILA
0.9
